# Test system: SK-MEL-28
# assay_summary: NCI tumour cell line growth inhibition, 48 h
The source made the active and inactive calls. No stated cut-off is given here; in the data, active = GI50 up to about 1.1 µM and inactive = higher.

{"compound": "CCN(CC)CCNc1n[n+]([O-])c2cc([N+](=O)[O-])ccc2[n+]1[O-]", "GI50": "5.35 µM (inactive)"}
{"compound": "CCC1(C(=O)OC)CCc2c(OC)ccc(OC)c2C1=O (stereo not given)", "GI50": "> 100 µM (inactive)"}
{"compound": "O=C1C2C=CC(n3[nH]c(=O)n(Cc4ccccc4)c3=O)CC2C(=O)N1c1cccc(Cl)c1 (stereo not given)", "GI50": "> 100 µM (inactive)"}
{"compound": "CCCC1(N2C(=O)c3ccc4c5c(ccc(c35)C2=O)N(C2(CCC)CCCCC2)C4=O)CCCCC1", "GI50": "> 100 µM (inactive)"}
{"compound": "O=c1c2cc(I)ccc2nc(-c2cccs2)n1O", "GI50": "65.8 µM (inactive)"}
